method.summary: qHTS for Inhibitors of the Functional Ribonucleoprotein Complex (vRNP) of Lassa (LASV) Arenavirus: LASV Primary Screen - GLuc reporter signal (AID 1347082); note: nearly all actives have a fitted effect of over 60% in size
test.conditions: LASV minigenome vRNP, Gaussia luciferase reporter; series mostly up to 57.5 µM
Inconclusive results are not listed. The source made the active and inactive calls. Calls come from the whole dose curve; tested in HEK293 reporter line.
Give your call using only these classes: active, inactive

Completed entries (count: 5):
CN(C)CC=CC(=O)Nc1cc2c(Nc3ccc(F)c(Cl)c3)ncnc2cc1O[C@H]1CCOC1 :: active
CCOc1cc2ncc(C#N)c(Nc3ccc(F)c(Cl)c3)c2cc1NC(=O)C=CCN(C)C :: active
CCOc1cc(NC(C)=O)ccc1C(=O)OC :: inactive
O=S(=O)(CC1CS1)c1ccc(Oc2ccccc2)cc1 (configuration not stated) :: inactive
CCCN(CCC)c1c([N+](=O)[O-])cc(S(N)(=O)=O)cc1[N+](=O)[O-] :: inactive

Hello, I am checking results. What call was entered for `OCCC#Cc1nc(-c2ccc(F)cc2)c(-c2ccncc2)n1CCCc1ccccc1` ?
inactive

Hello, I am checking results. What call was entered for `O=[N+]([O-])/N=C1\NCCN1Cc1ccc(Cl)nc1` ?
inactive

Reference source for all entries: PubChem BioAssay (NCATS)
